Reference source for all entries: patent US20090202499A1

- Experimental System: purified HLA-B*0702 (human)
- Method Description: competition solid-phase radioimmunoassay on purified HLA-B7, radiolabeled standard peptide
- Condition Label: remark: other sources report otherwise
Parameter Measured: IC50

What measured IC50 goes with DPRRLVQLL [hTRT peptide p444 (…)] ?
239 nM
